Quick list: IC50 per entry.
Biological target: Collagenase 3 (Homo sapiens, UniProt P45452)
Assay: Inhibitory activity against human matrix metalloprotease-13 in quenched fluorescence assay at pH 7.4

compound	recordedValue
COCC#CCC(NS(=O)(=O)c1ccc(NC(=O)N2CCOCC2)cc1)C(=O)O (stereo not drawn)	> 10000 nM
COc1ccc(-c2ccc(S(=O)(=O)NC(C(=O)O)[C@@H](C#Cc3ccccc3)OC)cc2)cc1 (stereo partly drawn)	81 nM
COc1ccc(C(=O)Nc2ccc(S(=O)(=O)NC(CC#CCOc3ccccc3)C(=O)O)cc2)cc1 (stereo not drawn)	226 nM

Enquiry: Report IC50 for CSc1ccc(-c2ccc(S(=O)(=O)NC(CC#Cc3ccccc3)C(=O)O)cc2)cc1 (stereo not drawn) please.
Return: 16 nM

Enquiry: Subsequent entry: O=C(O)C(CC#CCOc1ccccc1)NS(=O)(=O)c1ccc(-c2ccc(Br)cc2)cc1 (stereo not drawn)
Return: 254 nM

Enquiry: Input COc1ccc(-c2ccc(S(=O)(=O)NC(C(=O)O)[C@@H](C#Cc3ccccc3)OCc3ccccc3)cc2)cc1 (stereo partly drawn)
Return: 14 nM

Cited source for all entries: ChEMBL document CHEMBL1134384
